Experiment: Viability qHTS for spleen associated tyrosine kinase inhibitor (SYKi) drug resistant MV4-11 cells (AID 1963824); note: nearly all actives have a fitted effect of over 35% in size
Conditions: SYKi-resistant MV4-11 viability, CellTiter-Glo, 72 h; series mostly up to 45 µM
Inconclusive results are not listed. Calls of active or inactive are those of the source. Calls come from the whole dose curve; as a rule, active = well fitted cell-killing curve with a large enough effect; inconclusive = small, poorly fitted or top-dose-only effect, or effect the other way; inactive = no such curve, though single readings can be large or run the other way.

| COMPOUND | outcome |
| --- | --- |
| CC1(C)CC2C(O)c3cocc3CC(C)(O)C2C1 (stereo not drawn) | inactive |
| COc1cc2c(cc1OC)C(=O)CC2 | inactive |
| CCOC(=O)c1cc(C#N)c(N2CCC(C(=O)NS(=O)(=O)Cc3ccccc3)CC2)nc1C | inactive |

====

Assay: Quantitative highthroughput screen to assess conditional lethalithy of SEM cells grown in RPMI1640 with dialyzed fetal bovine serum (RPMI+ds) (AID 1963884); note: nearly all actives have a fitted effect of over 35% in size;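 for viability: 100% = DMSO control wells and 0% = empty wells without cells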
Conditions: SEM B-ALL cells, RPMI+dialyzed FBS, CellTiter-Glo viability, 48 h; series mostly up to 45.8 µM
Records with an inconclusive call do not appear. The source made the active and inactive calls. Calls come from the whole dose curve; as a rule, active = well fitted cell-killing curve with a large enough effect; inconclusive = small, poorly fitted or top-dose-only effect, or effect the other way; inactive = no such curve, though single readings can be large or run the other way.
Please answer using one outcome listed in class 1 (active), class 0 (inactive)

Query: Identify the outcome logged in this assay for the compound shown: `CC(C)N1[N]C(=C2C=c3cc(O)ccc3=N2)c2c(N)ncnc21`
Reply: class 1

Query: Queued: `Nc1nc(Cl)nc2c1ncn2[C@@H]1O[C@H](CO)[C@@H](O)[C@H]1F`
Reply: class 0

Query: Queued: `O=C(NCc1ccccc1)c1csc(Nc2ccncn2)n1`
Reply: class 1

Query: Queued: `S=C(NCc1ccc2c(c1)OCO2)N1CCN(c2ncnc3c2oc2ccccc23)CC1`
Reply: class 1

Query: Queued: COc1ccc(-c2cc3c(C)nc(N)nc3n(C3CCC(OCCO)CC3)c2=O)cn1 (stereo not given)
Reply: class 1

====

Assay: Cellular viability qHTS for adrenocortical cancer (ACC) cell line NCI-H295R (AID 1963990); note: nearly all actives have a fitted effect of over 60% in size
Conditions: CellTiter-Glo ATP luminescence, 48 h; series mostly up to 46.1 µM
Inconclusive results are not listed. Activity calls are given as the source filed them. Calls follow the shape of the dose curve; as a rule, active = well fitted cell-killing curve with a large enough effect; inconclusive = small, poorly fitted or top-dose-only effect; inactive = flat fitted curve, though single readings scatter.
Please answer using one outcome listed in active, inactive

Query: Identify the outcome logged in this assay for the compound shown: `CCOC(=O)c1ncn2c1CN(C)C(=O)c1cc(F)ccc1-2`
Reply: inactive

Query: Queued: `Fc1ccc2[nH]ccc2c1-c1nc(N2CCOCC2)c2sc(CN3CCN(CC4CC4)CC3)cc2n1`
Reply: active

Query: Queued: `CCCCOCCOc1nc(-c2ccc(C(=O)O)c(F)c2)sc1C`
Reply: inactive

Query: Queued: `O=C(O)C1CCC1`
Reply: inactive

Query: Queued: `COc1cc(NS(=O)(=O)c2ccc(N)cc2)nc(OC)n1`
Reply: inactive

Query: Queued: `CC(C)(C)NC(=O)[C@H]1CC[C@H]2[C@@H]3CC[C@H]4NC(=O)C=C[C@]4(C)[C@H]3CC[C@]12C`
Reply: inactive

Query: Queued: `COC(=O)c1nc(Cl)c(Cl)nc1N`
Reply: active

Query: Queued: NS(=O)(=O)c1cc(C2(O)NC(=O)c3ccccc32)ccc1Cl (stereo not drawn)
Reply: inactive

Query: Queued: `N=C(N)N`
Reply: inactive

Query: Queued: `Oc1ccc(C2CCN(c3ccnc4ccccc34)CC2)cc1O`
Reply: inactive

Query: Queued: `CC(C)=CCC/C(C)=C/CO`
Reply: inactive

Query: Queued: `Cc1onc(-c2c(Cl)cccc2Cl)c1C(=O)N[C@@H]1C(=O)N2[C@@H]1SC(C)(C)[C@@H]2C(=O)O`
Reply: inactive

Query: Queued: `C=CCNC(N)=S`
Reply: inactive
